Data provenance: patent US11858941B2

Entries and their IC50 values follow.
- Tested on: Endogenous Huntingtin Protein
- Assay name: Endogenous Huntingtin Protein Assay (Meso Scale Discovery ELISA-based electrochemiluminescence)
- Format: cell-based
- Reported conditions: MSD plates coated with MW1 (expanded polyglutamine) or MAB2166 capture antibody; lysates

| Molecule | IC50 |
| --- | --- |
| Cc1nc(F)c(-c2ccc(-c3cc4nnn(C5CC(C)(C)NC(C)(C)C5)c4nn3)c(O)c2)s1 [Cpd 154] | ≤ 100 nM |
| CC1(C)CC(n2nnc3cc(-c4ccc(-n5cnnc5)cc4O)nnc32)CC(C)(C)N1 [Cpd 64] | 1000 to 3000 nM |
| CC1(C)CC(n2c(O)nc3cc(-c4ccc(-c5cn[nH]c5)cc4O)nnc32)CC(C)(C)N1 [Cpd 9] | 1000 to 3000 nM |
| CC1(C)CC(n2nnc3cc(-c4ccc(-c5c[nH]cn5)cc4O)nnc32)CC(C)(C)N1 [Cpd 115] | 100 to 500 nM |
| CC1(C)CC(n2nnc3cc(-c4ccc(-n5nccn5)cc4O)nnc32)CC(C)(C)N1 [Cpd 163] | ≤ 100 nM |
| CC1(C)CC(n2nnc3cc(-c4ccc(-c5ncc(C#N)s5)cc4O)nnc32)CC(C)(C)N1 [Cpd 110] | 100 to 500 nM |
| CC1(C)CC(n2cnc3cc(-c4ccc(-c5cn[nH]c5)cc4O)nnc32)CC(C)(C)N1 [Cpd 3] | ≤ 100 nM |
| CC1(C)CC(n2nnc3cc(-c4ccc(-c5c[nH]nn5)cc4O)nnc32)CC(C)(C)N1 [Cpd 112] | ≤ 100 nM |
| Cc1ncc(-c2ccc(-c3cc4nnn(C5CC(C)(C)NC(C)(C)C5)c4nn3)c(O)c2)o1 [Cpd 158] | ≤ 100 nM |
| CC1(C)CC(n2nnc3cc(-c4ccc(-c5nncs5)cc4O)nnc32)CC(C)(C)N1 [Cpd 116] | ≤ 100 nM |
| CC1(C)C=C(c2coc3cc(-c4ccc(-c5cn[nH]c5)cc4O)nnc23)CC(C)(C)N1 [Cpd 105] | ≤ 100 nM |

* * *

- System: Endogenous Huntingtin Protein
- Assay name: Endogenous Huntingtin Protein Assay (Meso Scale Discovery ELISA-based electrochemiluminescence)
- Assay type: cell-based
- Reported conditions: MSD plates coated with MW1 (expanded polyglutamine) or MAB2166 capture antibody; lysates

| Compound smiles | Target or test system | IC50 |
| --- | --- | --- |
| COc1cc(-c2ccc(-c3cc4nnn(C5CC(C)(C)NC(C)(C)C5)c4nn3)c(O)c2)ccn1 | Endogenous Huntingtin Protein | ≤ 100 nM |
| CC1(C)CC(n2nnc3cc(-c4ccc(-c5cc(=O)[nH]cn5)cc4O)nnc32)CC(C)(C)N1 | Endogenous Huntingtin Protein | ≤ 100 nM |
| CC1(C)CC(n2nnc3cc(-c4ccc(-c5cncnc5)cc4O)nnc32)CC(C)(C)N1 | Endogenous Huntingtin Protein | 1000 to 3000 nM |
| CC1(C)CC(n2nnc3cc(-c4ccc(-c5ccc(O)nn5)cc4O)nnc32)CC(C)(C)N1 | Endogenous Huntingtin Protein | 500 to 1000 nM |

* * *

- Tested on: Endogenous Huntingtin Protein
- Assay name: Endogenous Huntingtin Protein Assay (Meso Scale Discovery ELISA-based electrochemiluminescence)
- Assay type: cell-based
- Reported conditions: MSD plates coated with MW1 (expanded polyglutamine) or MAB2166 capture antibody; lysates
pIC50: −log10 of the molar value.
# maps each entry to its pIC50
Observed property: pIC50

| Compound | Result |
| --- | --- |
| CC1(C)CC(n2nnc3cc(-c4ccc(-c5ccncn5)cc4O)nnc32)CC(C)(C)N1 [Cpd 75] | 6.30 to 7.00 |
| CC1(C)CC(n2nnc3cc(-c4ccc(-c5cccnc5)cc4O)nnc32)CC(C)(C)N1 [Cpd 65] | 6.00 to 6.30 |
| Cn1cc(-c2ccc(-c3cc4cnn(C5CC(C)(C)NC(C)(C)C5)c4nn3)c(O)c2)cn1 [Cpd 98] | ≥ 7.00 |
